- experimentalConditions: in acetonitrile, 308.15 K
measurementLabel: solubility (mole fraction)
# answer = number (no unit)

State the recorded solubility (mole fraction) for this entry: COC1CCC2(CC1)NC(=O)C(c1cc(C)ccc1C)=C2O (stereo unspecified)
0.00057

====

- experimentalConditions: in acetonitrile, 328.15 K
measurementLabel: solubility (mole fraction)

State the recorded solubility (mole fraction) for this entry: COC1CCC2(CC1)NC(=O)C(c1cc(C)ccc1C)=C2O (stereo unspecified)
0.0011

====

- experimentalConditions: in methanol, 303.15 K
measurementLabel: solubility (mole fraction)

State the recorded solubility (mole fraction) for this entry: COC1CCC2(CC1)NC(=O)C(c1cc(C)ccc1C)=C2O (stereo unspecified)
0.00473

====

- experimentalConditions: in methanol, 308.15 K
measurementLabel: solubility (mole fraction)
# answer = number (no unit)

State the recorded solubility (mole fraction) for this entry: COC1CCC2(CC1)NC(=O)C(c1cc(C)ccc1C)=C2O (stereo unspecified)
0.00528

====

- experimentalConditions: in water, 323.15 K
measurementLabel: solubility (mole fraction)
# answer = number (no unit)

State the recorded solubility (mole fraction) for this entry: COC1CCC2(CC1)NC(=O)C(c1cc(C)ccc1C)=C2O (stereo unspecified)
9.14e-06

====

- experimentalConditions: in acetonitrile, 313.15 K
measurementLabel: solubility (mole fraction)
# answer = number (no unit)

State the recorded solubility (mole fraction) for this entry: COC1CCC2(CC1)NC(=O)C(c1cc(C)ccc1C)=C2O (stereo unspecified)
0.000681

====

- experimentalConditions: in ethanol, 323.15 K
measurementLabel: solubility (mole fraction)
# answer = number (no unit)

State the recorded solubility (mole fraction) for this entry: COC1CCC2(CC1)NC(=O)C(c1cc(C)ccc1C)=C2O (stereo unspecified)
0.00596

====

- experimentalConditions: in acetonitrile, 298.15 K
measurementLabel: solubility (mole fraction)
# answer = number (no unit)

State the recorded solubility (mole fraction) for this entry: COC1CCC2(CC1)NC(=O)C(c1cc(C)ccc1C)=C2O (stereo unspecified)
0.000375

====

- experimentalConditions: in water, 313.15 K
measurementLabel: solubility (mole fraction)
# answer = number (no unit)

State the recorded solubility (mole fraction) for this entry: COC1CCC2(CC1)NC(=O)C(c1cc(C)ccc1C)=C2O (stereo unspecified)
7.28e-06

====

- experimentalConditions: in n-propanol, 313.15 K
measurementLabel: solubility (mole fraction)
# answer = number (no unit)

State the recorded solubility (mole fraction) for this entry: COC1CCC2(CC1)NC(=O)C(c1cc(C)ccc1C)=C2O (stereo unspecified)
0.00518

====

- experimentalConditions: in n-propanol, 293.15 K
measurementLabel: solubility (mole fraction)
# answer = number (no unit)

State the recorded solubility (mole fraction) for this entry: COC1CCC2(CC1)NC(=O)C(c1cc(C)ccc1C)=C2O (stereo unspecified)
0.00303
